test system: RXF 393 renal; assay: NCI tumour cell line growth inhibition, 48 h
Kindly state TGI for each of the entries shown.
Numbers only, in µM.

Please state, for each entry, its recorded TGI.
1. O=C1CC(=O)NC(=NN2C(=O)/C(=C/c3ccc(Cl)cc3)N=C2c2ccccc2)N1
2. Cn1cc(NC(=O)c2cc(NC(=O)CCCCCCCC(=O)Nc3cc(C(=O)Nc4cc(C(=O)NCCC(=N)N)n(C)c4)n(C)c3)cn2C)cc1C(=O)NCCC(=N)N
3. COc1ncc2cc1NS(=O)(=O)c1cccc(c1)C(=O)NCC1=CC=C(S1)c1ncnc3c1SC2=C3C
4. CC1(CCCCO)C=CC(S(=O)(=O)c2ccccc2)CC1 (stereo not given)
5. CCN(CC)C(=S)SSCCO
6. CCc1ccc(C2=NN(c3ccc(S(C)(=O)=O)cc3)C(=O)CC2)cc1
7. O=C1c2ccccc2/C=C\C(c2ccccc2)=N/N1c1ccccc1Cl

**A:**
[30.1, 41.3, 0.695, 17, 34.8, 15.4, 47.7]
